Reference source: patent US7863478B2

Assay: UV absorption (UV-VIS spectra in 2-propanol, 1 mg/100 ml)
Type: physicochemical
Design: unit not given here
Conditions: 1 mg/100 ml; value in brackets after λmax in the synthesis example
Mark no (0) for UV absorbance at λmax (1 mg/100 ml) values under 0.9, and yes (1) for everything at or above.

CN(C)c1ccc(C(=O)OCC(O)CO)cc1 (stereo not drawn) ... yes (1)
CN(C)c1ccc(C(=O)NCC(=O)CO[Si](C)(C)C(C)(C)C)cc1 ... no (0)
CN(C)c1ccc(C(=O)NCC(O)CO)cc1 (stereo not drawn) [Example 10d] ... yes (1)
COc1ccc(/C=C/C(=O)OCC(=O)COC(=O)/C=C/c2ccc(OC)cc2)cc1 ... yes (1)
COc1ccc(/C=C/C(=O)N(C)CC(O)CO)cc1 (stereo not drawn) [Example 10b] ... yes (1)
CN(C)c1ccc(C(=O)OCC2COC(C)(C)O2)cc1 (stereo not drawn) ... no (0)
COc1ccc(/C=C/C(=O)NCC(=O)CO)cc1 ... yes (1)
N#CC(C(=O)OCC(=O)COC(=O)C(C#N)=C(c1ccccc1)c1ccccc1)=C(c1ccccc1)c1ccccc1 [Example 23b] ... no (0)
CCCCC(CC)COc1ccc(/C=C/C(=O)OCC(=O)COC(=O)/C=C/c2ccc(OCC(CC)CCCC)cc2)cc1 (stereo not drawn) [Example 23a] ... yes (1)
